Target: aurora A kinase (AURKA) (Homo sapiens)
Construct: purchased BPS Bioscience (assay run externally by the vendor)
Sequence (O14965 1-403): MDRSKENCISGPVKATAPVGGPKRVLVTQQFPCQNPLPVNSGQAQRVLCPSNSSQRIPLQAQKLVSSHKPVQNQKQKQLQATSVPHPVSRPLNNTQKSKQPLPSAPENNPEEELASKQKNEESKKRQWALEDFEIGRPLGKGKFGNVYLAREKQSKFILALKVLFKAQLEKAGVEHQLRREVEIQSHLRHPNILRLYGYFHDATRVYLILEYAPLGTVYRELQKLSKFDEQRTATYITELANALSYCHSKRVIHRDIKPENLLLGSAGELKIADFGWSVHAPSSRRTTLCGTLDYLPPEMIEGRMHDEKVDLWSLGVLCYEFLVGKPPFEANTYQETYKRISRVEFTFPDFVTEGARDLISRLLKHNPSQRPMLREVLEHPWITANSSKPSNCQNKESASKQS
Experiment: ADP-Glo kinase assay, Aurora A
Assay type: biochemical
Details: Log[nM] 0; Set2
ENDPOINT_NAME: Aurora A % Activity Set2 (%)
Reply numerically in %, unit not repeated.

The examples below pair each entry with its known result.
[
  {
    "MOLECULE": "Cc1ccc(Nc2ncnc3[nH]ccc23)cc1",
    "TEST_RESULT": 103
  },
  {
    "MOLECULE": "Clc1cccc(Nc2ncnc3[nH]ccc23)c1",
    "TEST_RESULT": 100
  },
  {
    "MOLECULE": "Clc1ccccc1Nc1ncnc2[nH]ccc12",
    "TEST_RESULT": 92
  }
]

*Q* Return reported Aurora A % Activity Set2. Input molecule: "Cc1cccc(Nc2ncnc3[nH]ccc23)c1"
*A* 105

* * *

Overview of reported Aurora A % Activity Set2 across a group of compounds:
molecular target: aurora A kinase (AURKA) (Homo sapiens); construct: purchased BPS Bioscience (assay run externally by the vendor); assay: ADP-Glo kinase assay, Aurora A; format: biochemical; conditions: Log[nM] 3.0; Set2
Mention the unit after the number when you answer.

[
  {
    "SMILES_RECORD": "Brc1cccc(Nc2ncnc3[nH]ccc23)c1",
    "Aurora A % Activity Set2": "66%"
  },
  {
    "SMILES_RECORD": "c1ccc(Nc2ncnc3[nH]ccc23)cc1",
    "Aurora A % Activity Set2": "90%"
  },
  {
    "SMILES_RECORD": "c1ccc(Oc2ccc(Nc3ncnc4[nH]ccc34)cc2)cc1",
    "Aurora A % Activity Set2": "81%"
  },
  {
    "SMILES_RECORD": "COc1ccc(Nc2ncnc3[nH]ccc23)cc1",
    "Aurora A % Activity Set2": "91%"
  }
]

As a next step, examine the compound that follows.
*Q* Return reported Aurora A % Activity Set2. Input compound: "Cc1ccccc1Nc1ncnc2[nH]ccc12"
*A* 102%

* * *

biological target: EGFR (Homo sapiens, UniProt P00533); experiment: ADP-Glo kinase assay, EGFR; assay type: biochemical; parameters: purchased BPS Bioscience (assay run externally by the vendor); conditions: Log[nM] 2.0; Set2
Sequence (P00533 25-1210): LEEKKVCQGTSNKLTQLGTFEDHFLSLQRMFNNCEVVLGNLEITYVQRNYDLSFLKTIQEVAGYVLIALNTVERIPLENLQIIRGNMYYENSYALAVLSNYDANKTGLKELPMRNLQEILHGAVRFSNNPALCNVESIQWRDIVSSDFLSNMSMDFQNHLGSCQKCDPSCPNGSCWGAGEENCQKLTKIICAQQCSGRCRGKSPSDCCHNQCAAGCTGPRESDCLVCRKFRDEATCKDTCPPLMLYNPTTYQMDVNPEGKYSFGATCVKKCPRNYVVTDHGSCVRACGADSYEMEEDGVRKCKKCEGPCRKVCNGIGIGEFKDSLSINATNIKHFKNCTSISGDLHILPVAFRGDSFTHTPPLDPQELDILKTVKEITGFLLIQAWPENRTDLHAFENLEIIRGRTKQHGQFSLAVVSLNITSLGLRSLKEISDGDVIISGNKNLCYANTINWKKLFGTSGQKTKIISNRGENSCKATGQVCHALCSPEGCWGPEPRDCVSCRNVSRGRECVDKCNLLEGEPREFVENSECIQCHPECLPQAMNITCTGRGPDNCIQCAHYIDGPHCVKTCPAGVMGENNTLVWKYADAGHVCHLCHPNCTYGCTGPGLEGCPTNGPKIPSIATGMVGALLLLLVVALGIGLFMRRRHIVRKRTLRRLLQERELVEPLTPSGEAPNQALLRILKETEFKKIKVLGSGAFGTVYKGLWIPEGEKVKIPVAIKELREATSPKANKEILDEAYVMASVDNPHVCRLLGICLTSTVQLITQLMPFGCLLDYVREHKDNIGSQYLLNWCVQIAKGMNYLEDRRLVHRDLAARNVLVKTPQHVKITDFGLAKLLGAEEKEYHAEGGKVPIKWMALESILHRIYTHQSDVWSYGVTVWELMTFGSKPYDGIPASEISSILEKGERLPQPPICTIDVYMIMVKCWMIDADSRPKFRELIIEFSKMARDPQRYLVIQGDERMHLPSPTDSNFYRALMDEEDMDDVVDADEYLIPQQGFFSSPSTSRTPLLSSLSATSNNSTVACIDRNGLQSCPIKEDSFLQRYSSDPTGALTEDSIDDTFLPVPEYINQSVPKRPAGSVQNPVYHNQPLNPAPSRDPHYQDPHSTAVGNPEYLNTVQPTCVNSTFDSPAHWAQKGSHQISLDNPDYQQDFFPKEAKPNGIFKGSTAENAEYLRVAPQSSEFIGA
Could you label it class 1 if measured EGFR % Activity Set2 is 80% or higher, and class 0 otherwise?

[
  {
    "SMILES_RECORD": "Cc1ccc(Nc2ncnc3[nH]ccc23)cc1",
    "CLASS_NAME": "class 1"
  }
]

*Q* Is it the case that "COc1ccc(Nc2ncnc3[nH]ccc23)cc1" has EGFR % Activity Set2 reaching or exceeding 80%?
*A* class 1

*Q* Is it the case that "FC(F)(F)c1cccc(Nc2ncnc3[nH]ccc23)c1" has EGFR % Activity Set2 reaching or exceeding 80%?
*A* class 0

* * *

molecular target: aurora A kinase (AURKA) (Homo sapiens, UniProt O14965); construct: purchased BPS Bioscience (assay run externally by the vendor); assay: ADP-Glo kinase assay, Aurora A; assay type: biochemical; conditions: Log[nM] 4.5; Set2
Could you label it yes (1) if measured Aurora A % Activity Set2 is 10% or higher, and no (0) otherwise?

Previously resolved entries follow.
[
  {
    "SMILES_RECORD": "Fc1cc(Nc2ncnc3[nH]ccc23)ccc1Cl",
    "CLASS_NAME": "no (0)"
  },
  {
    "SMILES_RECORD": "c1ccc(Cc2ccc(Nc3ncnc4[nH]ccc34)cc2)cc1",
    "CLASS_NAME": "yes (1)"
  },
  {
    "SMILES_RECORD": "Cc1cccc(Nc2ncnc3[nH]ccc23)c1",
    "CLASS_NAME": "no (0)"
  },
  {
    "SMILES_RECORD": "Clc1cccc(Nc2ncnc3[nH]ccc23)c1",
    "CLASS_NAME": "no (0)"
  },
  {
    "SMILES_RECORD": "Clc1ccc(Nc2ncnc3[nH]ccc23)cc1",
    "CLASS_NAME": "yes (1)"
  }
]

*Q* Is it the case that "COc1ccc(Nc2ncnc3[nH]ccc23)cc1" has Aurora A % Activity Set2 reaching or exceeding 10%?
*A* yes (1)

* * *

target: aurora A kinase (AURKA) (Homo sapiens, UniProt O14965); construct: purchased BPS Bioscience (assay run externally by the vendor); assay: ADP-Glo kinase assay, Aurora A; type: biochemical; details: Log[nM] 4.0; Set2
Overview of reported Aurora A % Activity Set2 across a group of compounds:
Reply numerically in %, unit not repeated.

*Q* Return reported Aurora A % Activity Set2. Input compound: "Clc1cccc(Nc2ncnc3[nH]ccc23)c1"
*A* 22

*Q* Return reported Aurora A % Activity Set2. Input compound: "Cc1ccccc1Nc1ncnc2[nH]ccc12"
*A* 48

*Q* Return reported Aurora A % Activity Set2. Input compound: "Cc1cccc(Nc2ncnc3[nH]ccc23)c1"
*A* 17

*Q* Return reported Aurora A % Activity Set2. Input compound: "c1ccc(Nc2ncnc3[nH]ccc23)cc1"
*A* 31

*Q* Return reported Aurora A % Activity Set2. Input compound: "c1ccc(Cc2ccc(Nc3ncnc4[nH]ccc34)cc2)cc1"
*A* 30

*Q* Return reported Aurora A % Activity Set2. Input compound: "Clc1ccc(Nc2ncnc3[nH]ccc23)cc1Cl"
*A* 21

*Q* Return reported Aurora A % Activity Set2. Input compound: "Clc1ccccc1Nc1ncnc2[nH]ccc12"
*A* 25

*Q* Return reported Aurora A % Activity Set2. Input compound: "Fc1cc(Nc2ncnc3[nH]ccc23)ccc1Cl"
*A* 16

*Q* Return reported Aurora A % Activity Set2. Input compound: "Brc1ccc(Nc2ncnc3[nH]ccc23)cc1"
*A* 19

*Q* Return reported Aurora A % Activity Set2. Input compound: "Clc1ccc(Nc2ncnc3[nH]ccc23)cc1Br"
*A* 16

*Q* Return reported Aurora A % Activity Set2. Input compound: "Brc1cccc(Nc2ncnc3[nH]ccc23)c1"
*A* 14

*Q* Return reported Aurora A % Activity Set2. Input compound: "COc1ccc(Nc2ncnc3[nH]ccc23)cc1"
*A* 33

* * *

target: EGFR (Homo sapiens); assay: ADP-Glo kinase assay, EGFR; assay type: biochemical; parameters: purchased BPS Bioscience (assay run externally by the vendor); conditions: Log[nM] 4.5; Set1
Overview of reported EGFR % Activity Set1 across a group of compounds:

[
  {
    "COMPOUND": "Clc1ccc(Nc2ncnc3[nH]ccc23)cc1Cl [Compound 5]",
    "EGFR % Activity Set1": "0%"
  }
]

*Q* Return reported EGFR % Activity Set1. Input compound: Fc1cc(Nc2ncnc3[nH]ccc23)ccc1Cl [Compound 3]
*A* 0%

*Q* Return reported EGFR % Activity Set1. Input compound: c1ccc(Nc2ncnc3[nH]ccc23)cc1 [Compound 1]
*A* 2%

*Q* Return reported EGFR % Activity Set1. Input compound: Cc1cccc(Nc2ncnc3[nH]ccc23)c1 [Compound 12]
*A* 0%

*Q* Return reported EGFR % Activity Set1. Input compound: Clc1ccc(Nc2ncnc3[nH]ccc23)cc1Br [Compound 7]
*A* 1%

*Q* Return reported EGFR % Activity Set1. Input compound: Brc1ccc(Nc2ncnc3[nH]ccc23)cc1 [Compound 10]
*A* 1%

* * *

molecular target: aurora A kinase (AURKA) (Homo sapiens); construct: purchased BPS Bioscience (assay run externally by the vendor); experiment: ADP-Glo kinase assay, Aurora A; assay type: biochemical; settings: Log[nM] 2.5; Set2
Overview of reported Aurora A % Activity Set2 across a group of compounds:
Reply numerically in %, unit not repeated.

The examples below pair each entry with its known result.
[
  {
    "SMILES_RECORD": "Clc1ccc(Nc2ncnc3[nH]ccc23)cc1Cl",
    "Aurora A % Activity Set2 [%]": 108
  },
  {
    "SMILES_RECORD": "Brc1ccc(Nc2ncnc3[nH]ccc23)cc1",
    "Aurora A % Activity Set2 [%]": 93
  },
  {
    "SMILES_RECORD": "COc1ccc(Nc2ncnc3[nH]ccc23)cc1",
    "Aurora A % Activity Set2 [%]": 100
  }
]

*Q* Return reported Aurora A % Activity Set2. Input compound: "FC(F)(F)c1cccc(Nc2ncnc3[nH]ccc23)c1"
*A* 108

*Q* Return reported Aurora A % Activity Set2. Input compound: "c1ccc(Cc2ccc(Nc3ncnc4[nH]ccc34)cc2)cc1"
*A* 86

*Q* Return reported Aurora A % Activity Set2. Input compound: "c1ccc(Nc2ncnc3[nH]ccc23)cc1"
*A* 103

*Q* Return reported Aurora A % Activity Set2. Input compound: "Fc1cc(Nc2ncnc3[nH]ccc23)ccc1Cl"
*A* 105

*Q* Return reported Aurora A % Activity Set2. Input compound: "Brc1cccc(Nc2ncnc3[nH]ccc23)c1"
*A* 88

*Q* Return reported Aurora A % Activity Set2. Input compound: "Clc1ccccc1Nc1ncnc2[nH]ccc12"
*A* 106

*Q* Return reported Aurora A % Activity Set2. Input compound: "Cc1cccc(Nc2ncnc3[nH]ccc23)c1"
*A* 95

*Q* Return reported Aurora A % Activity Set2. Input compound: "Cc1ccc(Nc2ncnc3[nH]ccc23)cc1"
*A* 102
